test system: bronchospasm against acetylcholine; assay: Broncholytic effect at the narcotized guinea-pig, bronchospasm by acetylcholine; type: in vivo; details: Cavia porcellus, iv, 2 min; 10 mg/kg i.v., 2 min. i.p.
// assign criterion met if change in vivo at 10 mg/kg falls strictly below -80%, else criterion not met (ties count as criterion not met)

[
  {
    "Compound": "CC(=O)CCCCn1c(=O)c2c(ncn2C)n(C)c1=O [Sample 8, 1-(5-Oxohexyl)-3,7-dimethylxanthine, reference compound]",
    "Assigned Class": "criterion not met"
  },
  {
    "Compound": "CCCCn1cnc2c1c(=O)n(CCCCC(C)=O)c(=O)n2C",
    "Assigned Class": "criterion met"
  },
  {
    "Compound": "CC(=O)CCCCn1cnc2c1c(=O)n(CC(C)C)c(=O)n2C",
    "Assigned Class": "criterion not met"
  },
  {
    "Compound": "CCCn1cnc2c1c(=O)n(CCCCC(C)=O)c(=O)n2C",
    "Assigned Class": "criterion not met"
  },
  {
    "Compound": "CCn1cnc2c1c(=O)n(CCCCC(C)=O)c(=O)n2C",
    "Assigned Class": "criterion met"
  },
  {
    "Compound": "CCCCCCn1c(=O)c2c(ncn2CCCCC(C)=O)n(C)c1=O",
    "Assigned Class": "criterion met"
  }
]

* * *

experiment: Toxicity in the mouse (LD50); conditions: in vivo, ip, read-out: Toxicity (LD50-range or LD50)

[
  {
    "Structure Notation": "CCCCCCn1c(=O)c2c(ncn2CCCCC(C)=O)n(C)c1=O",
    "LD50": "250 to 500 mg/kg"
  },
  {
    "Structure Notation": "CCCCn1cnc2c1c(=O)n(CCCCC(C)=O)c(=O)n2C",
    "LD50": "250 to 500 mg/kg"
  },
  {
    "Structure Notation": "CCn1cnc2c1c(=O)n(CCCCC(C)=O)c(=O)n2C",
    "LD50": "250 to 500 mg/kg"
  },
  {
    "Structure Notation": "CCCn1c(=O)c2c(ncn2CCCCC(C)=O)n(C)c1=O",
    "LD50": "100 to 250 mg/kg"
  },
  {
    "Structure Notation": "CCCCCCCCCCn1cnc2c1c(=O)n(CCCCC(C)=O)c(=O)n2C",
    "LD50": "500 mg/kg"
  },
  {
    "Structure Notation": "CC(=O)CCCCn1cnc2c1c(=O)n(CC(C)C)c(=O)n2C",
    "LD50": "250 to 500 mg/kg"
  }
]

* * *

Below: a set of entries, each annotated with reported Change of the bronchospasm in % against acrotonine.
tested on: bronchospasm against acrotonine; assay: Broncholytic effect at the narcotized guinea-pig, bronchospasm by acrotonine (so in the source); assay type: in vivo; details: 3 mg/kg i.v., 2 min. i.p.
Reported Endpoint: Change of the bronchospasm in % against acrotonine

[
  {
    "Structure Notation": "CCCn1cnc2c1c(=O)n(CCCCC(C)=O)c(=O)n2C",
    "Result": "-83%"
  },
  {
    "Structure Notation": "CCCCCCn1c(=O)c2c(ncn2CCCCC(C)=O)n(C)c1=O",
    "Result": "-50%"
  },
  {
    "Structure Notation": "CCn1cnc2c1c(=O)n(CCCCC(C)=O)c(=O)n2C",
    "Result": "-42%"
  },
  {
    "Structure Notation": "CC(=O)CCCCn1cnc2c1c(=O)n(CC(C)C)c(=O)n2C",
    "Result": "-20%"
  }
]

* * *

In this section we review reported Muscular blood perfusion Δλ (change of blood perfusion) values for a set of compounds.
system: muscular blood perfusion; assay: Muscular blood perfusion by fluvography at the cat (i.v.); assay type: in vivo; conditions: 5 mg/kg i.v.
Reported Endpoint: Muscular blood perfusion Δλ (change of blood perfusion)

[
  {
    "Compound": "CC(=O)CCCCn1cnc2c1c(=O)n(CC(C)C)c(=O)n2C",
    "Result": "+0.05"
  },
  {
    "Compound": "CCCn1cnc2c1c(=O)n(CCCCC(C)=O)c(=O)n2C",
    "Result": "+0.08"
  },
  {
    "Compound": "CC(=O)CCCCn1c(=O)c2c(ncn2C)n(C)c1=O [Sample 8, 1-(5-Oxohexyl)-3,7-dimethylxanthine, reference compound]",
    "Result": "+0.03"
  },
  {
    "Compound": "CCCCn1cnc2c1c(=O)n(CCCCC(C)=O)c(=O)n2C",
    "Result": 0
  },
  {
    "Compound": "CCn1cnc2c1c(=O)n(CCCCC(C)=O)c(=O)n2C",
    "Result": "+0.20"
  }
]

* * *

# Cerebral blood perfusion half-life values compiled below
system: cerebral blood perfusion; assay: Cerebral blood perfusion by fluvography at the cat (i.v.); format: in vivo; conditions: 2 mg/kg i.v.
Reported Endpoint: Cerebral blood perfusion half-life (min)

[
  {
    "Structure Notation": "CCCCCCn1c(=O)c2c(ncn2CCCCC(C)=O)n(C)c1=O",
    "Reported Endpoint": "Cerebral blood perfusion half-life",
    "Scale Unit": "min",
    "Numeric Readout": 7.0
  },
  {
    "Structure Notation": "CCn1cnc2c1c(=O)n(CCCCC(C)=O)c(=O)n2C",
    "Reported Endpoint": "Cerebral blood perfusion half-life",
    "Scale Unit": "min",
    "Numeric Readout": 5.0
  },
  {
    "Structure Notation": "CCCn1cnc2c1c(=O)n(CCCCC(C)=O)c(=O)n2C",
    "Reported Endpoint": "Cerebral blood perfusion half-life",
    "Scale Unit": "min",
    "Numeric Readout": 5.8
  },
  {
    "Structure Notation": "CCCCn1cnc2c1c(=O)n(CCCCC(C)=O)c(=O)n2C",
    "Reported Endpoint": "Cerebral blood perfusion half-life",
    "Scale Unit": "min",
    "Numeric Readout": 1.3
  }
]

* * *

Listed compounds paired with reported Cerebral blood perfusion Δλ (change of blood perfusion)
test system: cerebral blood perfusion; assay: Cerebral blood perfusion by fluvography at the cat (i.v.); assay type: in vivo; conditions: 5 mg/kg i.v.
Reported Endpoint: Cerebral blood perfusion Δλ (change of blood perfusion)

[
  {
    "Compound": "CCCn1cnc2c1c(=O)n(CCCCC(C)=O)c(=O)n2C",
    "Result": "+13.00"
  },
  {
    "Compound": "CCn1cnc2c1c(=O)n(CCCCC(C)=O)c(=O)n2C",
    "Result": "+8.07"
  },
  {
    "Compound": "CC(=O)CCCCn1c(=O)c2c(ncn2C)n(C)c1=O [Sample 8, 1-(5-Oxohexyl)-3,7-dimethylxanthine, reference compound]",
    "Result": "+0.86"
  },
  {
    "Compound": "CCCCn1cnc2c1c(=O)n(CCCCC(C)=O)c(=O)n2C",
    "Result": "+2.40"
  },
  {
    "Compound": "CC(=O)CCCCn1cnc2c1c(=O)n(CC(C)C)c(=O)n2C",
    "Result": "+3.45"
  }
]

* * *

test: Toxicity in the mouse (LD50); conditions: in vivo, iv, read-out: Toxicity (LD50)
Reported Endpoint: LD50

[
  {
    "Structure Notation": "CCCn1cnc2c1c(=O)n(CCCCC(C)=O)c(=O)n2C",
    "Reported Endpoint": "LD50",
    "Result": "107 mg/kg"
  }
]

* * *

experiment: Toxicity in the mouse (LD50); conditions: in vivo, po, per os, read-out: Toxicity (LD50)

[
  {
    "Compound": "CCCn1cnc2c1c(=O)n(CCCCC(C)=O)c(=O)n2C [Sample 4]",
    "LD50, mg/kg": 860
  }
]

* * *

test: Solubility; format: physicochemical; settings: water; 25° C.
Recorded solubility for the following compounds

[
  {
    "Compound": "CCn1cnc2c1c(=O)n(CCCCC(C)=O)c(=O)n2C [Sample 7, 1-(5-oxohexyl)-3-methyl-7-ethyl-xanthine]",
    "solubility": "~20 mg/mL"
  },
  {
    "Compound": "CCCn1cnc2c1c(=O)n(CCCCC(C)=O)c(=O)n2C [Sample 4]",
    "solubility": "~32 mg/mL"
  }
]

* * *

test system: muscular blood perfusion; test: Muscular blood perfusion by fluvography at the cat (i.v.); type: in vivo; settings: 1 mg/kg i.v.
Recorded Muscular blood perfusion Δλ (change of blood perfusion) for the following compounds
Reported Endpoint: Muscular blood perfusion Δλ (change of blood perfusion)

[
  {
    "Compound": "CCCCn1cnc2c1c(=O)n(CCCCC(C)=O)c(=O)n2C [Sample 5]",
    "Numeric Readout": 0
  },
  {
    "Compound": "CC(=O)CCCCn1cnc2c1c(=O)n(CC(C)C)c(=O)n2C [Sample 2]",
    "Numeric Readout": 0
  },
  {
    "Compound": "CCCCCCCCCCn1cnc2c1c(=O)n(CCCCC(C)=O)c(=O)n2C [Sample 6]",
    "Numeric Readout": 0
  },
  {
    "Compound": "CCCCCCn1c(=O)c2c(ncn2CCCCC(C)=O)n(C)c1=O [Sample 3]",
    "Numeric Readout": -0.05
  }
]

All figures here come from patent US4289776A.
